Data origin, for the record: patent US20250368649A1

- assay-system: KRas G12A (Homo sapiens, UniProt P01116, G12A)
- Sequence (P01116 1-169 isoform P01116-2 G12A): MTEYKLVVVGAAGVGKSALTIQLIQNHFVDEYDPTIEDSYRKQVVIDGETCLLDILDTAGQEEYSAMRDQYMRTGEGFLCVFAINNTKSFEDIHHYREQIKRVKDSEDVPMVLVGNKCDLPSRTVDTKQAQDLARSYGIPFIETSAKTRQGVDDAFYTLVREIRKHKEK
- Assay type: binding
- applied-conditions: TR-FRET displacement, read-out: Binding to KRas (IC50 nM) G12A
readout: IC50 (nM)

Cc1cc2[nH]ncc2c(N2CCc3c(nc(OCC45CCCN4CCC5)nc3N3CCCC4(CNC(=O)N4)C3)C2)c1C (stereo not shown) [Example 461] = 22
Cc1cc2[nH]ncc2c(N2CCc3c(nc(OCC45CCCN4CCC5)nc3N3CCOCC(C)(O)C3)C2)c1C (stereo not shown) [Example 460] = 142

I = Cc1cc2[nH]ncc2c(N2CCc3c(nc(OCC4(CN(C)C)CC4)nc3N3CCC[C@]4(C3)NC(=O)NC4=O)C2)c1C [Example 462]
II = CCc1cccc2cccc(N3CCc4c(nc(OCC5(CN(C)C)CC5)nc4NCc4nnnn4C4CCC4)C3)c12 [Example 533]
III = CN(C)C(=O)c1cc2n(n1)CCCN(c1nc(OC[C@@]34CCCN3C[C@H](F)C4)nc3c1CCN(c1cccc4cccc(Cl)c14)C3)C2 [Example 483]
IV = CCc1cccc2cccc(N3CCc4c(nc(OCC5(CN(C)C)CC5)nc4N4CC(CO)OC(C(F)(F)F)C4)C3)c12 (stereo not shown) [Example 540]
V = CCc1cccc2cccc(N3CCc4c(nc(OCC5(CN(C)C)CC5)nc4NCC4COCC4n4cc(C(N)=O)nn4)C3)c12 (stereo not shown) [Example 705]
Query: Put the items in sequence by IC50, from largest down. List each label, following the requested order.
Response: V, II, IV, III, I
(V: 16500 nM, II: 5970 nM, IV: 3280 nM, III: 81 nM, I: 10 nM)

* * *

- assay-system: KRas Q61H (Homo sapiens, UniProt P01116, Q61H)
- Sequence (P01116 1-169 isoform P01116-2 Q61H): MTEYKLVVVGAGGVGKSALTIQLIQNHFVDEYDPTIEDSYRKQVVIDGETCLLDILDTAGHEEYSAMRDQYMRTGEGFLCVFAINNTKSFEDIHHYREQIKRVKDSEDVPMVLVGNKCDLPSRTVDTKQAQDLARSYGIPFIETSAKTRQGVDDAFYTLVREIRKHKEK
- protocol-notes: KRas binding assay (TR-FRET displacement), KRas Q61H
- applied-conditions: single point, 10 nM compound
readout: inhibition at 0.01 µM (%)

CCc1c(F)ccc2cc(O)cc(N3CCc4c(nc(OC[C@@]56CCCN5C[C@H](F)C6)nc4N4CCCn5nc(C(=O)N6CC7CCC(C6)N7)cc5C4)C3)c12 = 97
CCc1c(F)ccc2cc(O)cc(N3CCc4c(nc(OC[C@@]56CCCN5C[C@H](F)C6)nc4N4CCCn5nc(C(=O)N6C[C@@H]7C[C@H](C6)[C@H](O)C7)cc5C4)C3)c12 = 99
CCc1c(F)ccc2cc(O)cc(N3CCc4c(nc(OC[C@@]56CCCN5C[C@H](F)C6)nc4N4CCCn5nc(C(=O)N6CC7CCC6CN7)cc5C4)C3)c12 (some centres unmarked) = 98
CCc1c(F)ccc2cc(O)cc(N3CCc4c(nc(OC[C@@]56CCCN5C[C@H](F)C6)nc4N4CCCn5nc(C(=O)N(C)C6CCC6)cc5C4)C3)c12 = 96
CCc1c(F)ccc2cc(O)cc(N3CCc4c(nc(OC[C@@]56CCCN5C[C@H](F)C6)nc4N4CCCn5nc6c(c5C4)CCNC6=O)C3)c12 = 97

* * *

- assay-system: KRas G12R (Homo sapiens, UniProt P01116, G12R)
- Sequence (P01116 1-169 isoform P01116-2 G12R): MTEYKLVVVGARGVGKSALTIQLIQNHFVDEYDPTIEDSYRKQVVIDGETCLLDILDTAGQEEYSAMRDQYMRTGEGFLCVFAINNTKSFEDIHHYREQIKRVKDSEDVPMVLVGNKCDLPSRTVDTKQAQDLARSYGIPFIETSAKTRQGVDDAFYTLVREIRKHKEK
- protocol-notes: biochemical
- applied-conditions: Binding to KRas (IC50 nM) G12R, TR-FRET displacement, KRas G12R
readout: IC50

CCc1c(F)ccc2cc(O)cc(N3CCc4c(nc(OC[C@@]56CCCN5C[C@H](F)C6)nc4N4CCCSCC4)C3)c12 = < 2 nM

Query: Using the record for CN1CCC[C@H]1COc1nc2c(c(N3CCCC4(CC(O)C4)C3)n1)CCN(c1cccc3cccc(Cl)c13)C2 (stereo partly drawn) , state its measured IC50.
Response: 1810 nM

Query: Using the record for "CCc1c(F)ccc2cc(O)cc(N3CCc4c(nc(OC[C@@]56CCCN5C[C@H](F)C6)nc4N4CCCn5nc(C(=O)O)cc5C4)C3)c12" , state its measured IC50.
Response: < 2 nM

* * *

- Tested on: H460 cells
- protocol-notes: Inhibition of KRas-mediated phosphorylation of ERK (Cisbio HTRF pERK), H460 cells
- Format: cell-based
- applied-conditions: Homo sapiens, NCI-H460, single point at 100 nM, 3 hrs compound incubation
readout: inhibition at 0.1 µM (%)
// return numeric value only (unit: %, not printed)

Below, 5 compounds whose answers are already recorded.
O=C1NC(=O)[C@]2(CCCN(c3nc(OCC45CCCN4CCC5)nc4c3CCN(c3c(C5CC5)c(Cl)cc5[nH]ncc35)C4)C2)N1 = -3
CCc1c(F)ccc2cc(O)cc(N3CCc4c(nc(OC[C@@]56CCCN5C[C@H](F)C6)nc4N4CCCn5nc(C(=O)N6CC7CNC(C7)C6)cc5C4)C3)c12 (some centres unmarked) = -4
CCc1c(F)ccc2cc(O)cc(N3CCc4c(nc(OC[C@@]56CCCN5C[C@H](F)C6)nc4N4CCCn5nc(C(=O)N6CC7(CCCN7)C6)cc5C4)C3)c12 = 12
CCc1c(F)ccc2cc(O)cc(N3CCc4c(nc(OC[C@@]56CCCN5C[C@H](F)C6)nc4N4CCCCC(COCC(=O)N(C)C)C4)C3)c12 (some centres unmarked) = 15
CCNC(=O)c1cc2n(n1)CCCCN(c1nc(OC[C@@]34CCCN3C[C@H](F)C4)nc3c1CCN(c1cc(O)cc4ccc(F)c(CC)c14)C3)C2 = 54

Query: Would you please give the reported inhibition at 0.1 µM of "CCc1c(F)ccc2cc(O)cc(N3CCc4c(nc(OC[C@@]56CCCN5C[C@H](F)C6)nc4N4CCCn5nc(C(=O)N6CC7CCC(C6)N7)cc5C4)C3)c12" with H460 cells?
Response: -4

Query: Would you please give the reported inhibition at 0.1 µM of "CCNC(=O)c1nn2c(c1Cl)CN(c1nc(OC[C@@]34CCCN3C[C@H](F)C4)nc3c1CCN(c1cc(O)cc4ccc(F)c(CC)c14)C3)CCC2" with H460 cells?
Response: 83

* * *

- assay-system: KRas G12S (Homo sapiens, UniProt P01116, G12S)
- Sequence (P01116 1-169 isoform P01116-2 G12S): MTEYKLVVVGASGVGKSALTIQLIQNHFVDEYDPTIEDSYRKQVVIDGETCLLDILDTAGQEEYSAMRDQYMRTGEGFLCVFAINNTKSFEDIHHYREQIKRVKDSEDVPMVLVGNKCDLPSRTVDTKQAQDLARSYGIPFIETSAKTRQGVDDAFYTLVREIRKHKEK
- Format: binding
- applied-conditions: TR-FRET displacement, read-out: Binding to KRas (IC50 nM) G12S
readout: IC50 (nM)

A = CCc1cccc2cccc(N3CCc4c(nc(OCC5(CN(C)C)CC5)nc4N4CCn5nnc(CO)c5C4)C3)c12 [Example 517]
B = Cc1cc2[nH]ncc2c(N2CCc3c(nc(OCC45CCCN4CCC5)nc3N3CC4C(=O)NC(=O)C4C3)C2)c1C (centres unmarked) [Example 458]
Query: Select the item whose IC50 value is smaller, choosing between A and B . Give the label under which the chosen entry appears.
Response: B

* * *

- assay-system: KRas Q61H (Homo sapiens, UniProt P01116, Q61H)
- protocol-notes: KRas binding assay (TR-FRET displacement), KRas Q61H
- applied-conditions: single point, 10 nM compound
readout: inhibition at 0.01 µM (%)

CCc1c(F)ccc2cc(O)cc(N3CCc4c(nc(OC[C@@]56CCCN5C[C@H](F)C6)nc4N4CCCn5nc(C(=O)N6CC[C@@H]7CC[C@H]6C7)cc5C4)C3)c12 [Example 338] = 93

A = CCc1c(F)ccc2cc(O)cc(N3CCc4c(nc(OC[C@@]56CCCN5C[C@H](F)C6)nc4N4CCCn5nc(C(=O)NCCOCCOC)cc5C4)C3)c12 [Example 374]
B = CCc1c(F)ccc2cc(O)cc(N3CCc4c(nc(OC[C@@]56CCCN5C[C@H](F)C6)nc4N4CCCn5nc6c(c5C4)CCCN6)C3)c12 [Example 392]
Query: Select the item whose inhibition at 0.01 µM value is smaller, choosing between A and B . Give the label under which the chosen entry appears.
Response: B

* * *

Recorded IC50 for the following molecules
- assay-system: KRas G12V (Homo sapiens, UniProt P01116, G12V)
- Sequence (P01116 1-169 isoform P01116-2 G12V): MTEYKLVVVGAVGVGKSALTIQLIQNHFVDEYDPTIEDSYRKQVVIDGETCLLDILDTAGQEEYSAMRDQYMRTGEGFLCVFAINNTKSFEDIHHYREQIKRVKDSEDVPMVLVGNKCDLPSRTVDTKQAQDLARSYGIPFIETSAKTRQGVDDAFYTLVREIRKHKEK
- protocol-notes: biochemical
- applied-conditions: Binding to KRas (IC50 nM) G12V, TR-FRET displacement, KRas G12V

Below, 2 molecules whose answers are already recorded.
CCc1c(F)ccc2cc(O)cc(N3CCc4c(nc(OC[C@@]56CCCN5C[C@H](F)C6)nc4N4CCCn5nc(C(=O)N6CC7CNC(CO)C7C6)cc5C4)C3)c12 (stereo partly drawn) [Example 607] = < 2 nM
CCNC(=O)c1cc2n(n1)CCCCN(c1nc(OC[C@@]34CCCN3C[C@H](F)C4)nc3c1CCN(c1cc(O)cc4ccc(F)c(CC)c14)C3)C2 [Example 301] = < 2 nM

Moving on to the next molecule.
Query: Using the record for Cc1c(F)ccc2cc(O)cc(N3CCc4c(nc(OC[C@@]56CCCN5C[C@H](F)C6)nc4N4CCCC5(CNS(=O)(=O)N5)C4)C3)c12 (stereo partly drawn) [Example 512] , state its measured IC50.
Response: < 2 nM
